Data provenance: ChEMBL document CHEMBL1147738

Catalogue of solubility readings, one per entry.
- Assay Info: Aqueous solubility at pH 6.5
- Format: physicochemical

Compound | Measurement Units | solubility
CCONC(=O)c1cn(C)c(=O)c(C)c1Nc1ccc(Br)cc1F | µg/mL | 60
Cn1cc(C(N)=O)c(Nc2ccc(Br)cc2F)c(F)c1=O | µg/mL | 26
CONC(=O)c1cn(C)c(=O)c(C)c1Nc1ccc(Br)cc1F | µg/mL | 200
Cc1c(Nc2ccc(Br)cc2F)c(C(=O)NOCCO)cn(C)c1=O | µg/mL | 450

* * *

- Tested System: MAP kinase-activated protein kinase 2 (Homo sapiens) (UniProt P49137)
- Sequence (P49137 whole entry, looked up): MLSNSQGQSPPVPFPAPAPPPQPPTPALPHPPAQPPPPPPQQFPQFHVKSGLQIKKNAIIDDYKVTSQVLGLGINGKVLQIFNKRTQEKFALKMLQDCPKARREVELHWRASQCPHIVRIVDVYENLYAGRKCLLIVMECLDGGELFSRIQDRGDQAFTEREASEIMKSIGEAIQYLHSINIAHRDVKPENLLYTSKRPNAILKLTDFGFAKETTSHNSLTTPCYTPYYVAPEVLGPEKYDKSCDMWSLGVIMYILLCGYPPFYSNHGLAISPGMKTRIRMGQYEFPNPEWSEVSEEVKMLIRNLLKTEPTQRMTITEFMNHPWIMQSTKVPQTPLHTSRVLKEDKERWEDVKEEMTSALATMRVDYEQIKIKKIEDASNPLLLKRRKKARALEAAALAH
- Assay Info: Inhibition of MAPKAP-K2 at 10 uM
Catalogue of inhibition readings, one per entry.

Compound | Tested System | inhibition, %
Cc1c(Nc2ccc(Br)cc2F)c(C(=O)NOCCO)cn(C)c1=O | MAP kinase-activated protein kinase 2 (Homo sapiens) (UniProt P49137) | 8
CCONC(=O)c1cn(C)c(=O)c(C)c1Nc1ccc(Br)cc1F | MAP kinase-activated protein kinase 2 (Homo sapiens) (UniProt P49137) | 14
CONC(=O)c1cn(C)c(=O)c(C)c1Nc1ccc(Br)cc1F | MAP kinase-activated protein kinase 2 (Homo sapiens) (UniProt P49137) | 1
CCONC(=O)c1cn(C)c(=O)c(F)c1Nc1ccc(Br)cc1F | MAP kinase-activated protein kinase 2 (Homo sapiens) (UniProt P49137) | 15

* * *

Catalogue of inhibition readings, one per entry.
- Tested System: AMP-activated protein kinase, AMPK (Homo sapiens) (UniProt P54646+O43741+P54619+Q9UGJ0+Q9Y478+Q13131+Q9UGI9)
- Assay Info: Inhibition of AMPK at 10 uM
- Type: protein-complex assay

Compound | inhibition, %
CONC(=O)c1cn(C)c(=O)c(C)c1Nc1ccc(Br)cc1F | -4
CCONC(=O)c1cn(C)c(=O)c(F)c1Nc1ccc(Br)cc1F | 8
CCONC(=O)c1cn(C)c(=O)c(C)c1Nc1ccc(Br)cc1F | 2
Cc1c(Nc2ccc(Br)cc2F)c(C(=O)NOCCO)cn(C)c1=O | 19

* * *

- System: Rattus norvegicus
- Assay Info: AUC in rat at 10 mg/kg, po
- Format: ADME, organism-based, Sprague-Dawley, Plasma
- Set-up: dose 10 mg/kg, route oral
- Condition Set: in vivo
Kindly return YES if reported AUC is no lower than 90000 ng·h/mL; return NO if it is lower.

Compound | Qualitative Label
CCONC(=O)c1cn(C)c(=O)c(C)c1Nc1ccc(Br)cc1F | NO
CCONC(=O)c1cn(C)c(=O)c(F)c1Nc1ccc(Br)cc1F | YES
Cc1c(Nc2ccc(Br)cc2F)c(C(=O)NOCCO)cn(C)c1=O | NO
Cn1cc(C(N)=O)c(Nc2ccc(Br)cc2F)c(F)c1=O | NO

* * *

- Tested System: UniProtKB P06239
- Sequence (P06239 2-509 limits assumed): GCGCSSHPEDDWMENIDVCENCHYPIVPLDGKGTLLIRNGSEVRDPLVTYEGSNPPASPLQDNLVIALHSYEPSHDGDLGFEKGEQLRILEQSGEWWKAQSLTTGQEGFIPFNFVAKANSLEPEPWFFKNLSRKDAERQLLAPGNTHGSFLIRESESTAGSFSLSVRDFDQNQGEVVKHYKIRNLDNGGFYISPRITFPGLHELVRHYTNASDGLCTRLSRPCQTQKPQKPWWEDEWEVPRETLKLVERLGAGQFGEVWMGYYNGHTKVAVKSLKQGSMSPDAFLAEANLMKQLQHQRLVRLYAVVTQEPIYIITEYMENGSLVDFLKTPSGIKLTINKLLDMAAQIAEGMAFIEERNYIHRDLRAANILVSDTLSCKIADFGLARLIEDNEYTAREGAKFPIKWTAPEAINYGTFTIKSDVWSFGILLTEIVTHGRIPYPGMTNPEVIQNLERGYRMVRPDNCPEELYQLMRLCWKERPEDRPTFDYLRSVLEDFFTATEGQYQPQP
- Assay Info: Inhibition of LCK at 10 uM
Experimental Readout: inhibition (%)

Compound | Experimental Readout | Obs Value
CCONC(=O)c1cn(C)c(=O)c(C)c1Nc1ccc(Br)cc1F | inhibition | 9
CONC(=O)c1cn(C)c(=O)c(C)c1Nc1ccc(Br)cc1F | inhibition | -1
CCONC(=O)c1cn(C)c(=O)c(F)c1Nc1ccc(Br)cc1F | inhibition | 19
Cc1c(Nc2ccc(Br)cc2F)c(C(=O)NOCCO)cn(C)c1=O | inhibition | 13

* * *

- Tested System: Mitogen-activated protein kinase 8 (Homo sapiens) (UniProt P45983)
- Sequence (P45983 whole entry): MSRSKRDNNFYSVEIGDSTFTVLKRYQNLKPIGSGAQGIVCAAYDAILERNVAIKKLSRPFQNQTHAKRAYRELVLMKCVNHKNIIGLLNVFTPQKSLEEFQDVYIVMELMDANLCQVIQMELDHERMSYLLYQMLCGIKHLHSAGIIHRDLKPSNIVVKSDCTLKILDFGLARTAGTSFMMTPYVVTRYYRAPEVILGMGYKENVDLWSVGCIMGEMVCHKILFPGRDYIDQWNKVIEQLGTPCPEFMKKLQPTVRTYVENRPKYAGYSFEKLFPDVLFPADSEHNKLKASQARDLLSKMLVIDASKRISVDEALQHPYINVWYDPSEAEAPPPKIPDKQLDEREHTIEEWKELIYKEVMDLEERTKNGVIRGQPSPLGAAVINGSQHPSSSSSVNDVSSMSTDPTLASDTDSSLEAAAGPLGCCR
- Assay Info: Inhibition of JNK/SAPK1c at 10 uM

Compound | inhibition
CCONC(=O)c1cn(C)c(=O)c(C)c1Nc1ccc(Br)cc1F | 23%
CONC(=O)c1cn(C)c(=O)c(C)c1Nc1ccc(Br)cc1F | 7%
Cc1c(Nc2ccc(Br)cc2F)c(C(=O)NOCCO)cn(C)c1=O | 23%
CCONC(=O)c1cn(C)c(=O)c(F)c1Nc1ccc(Br)cc1F | 15%

* * *

- Tested System: Dual specificity tyrosine-phosphorylation-regulated kinase 1A (Homo sapiens)
- Assay Info: Inhibition of DYRK1a at 10 uM
Catalogue of inhibition readings, one per entry.
Experimental Readout: inhibition (%)

Compound | Experimental Readout | Obs Value
CONC(=O)c1cn(C)c(=O)c(C)c1Nc1ccc(Br)cc1F | inhibition | 2
CCONC(=O)c1cn(C)c(=O)c(C)c1Nc1ccc(Br)cc1F | inhibition | 15
Cc1c(Nc2ccc(Br)cc2F)c(C(=O)NOCCO)cn(C)c1=O | inhibition | 10
CCONC(=O)c1cn(C)c(=O)c(F)c1Nc1ccc(Br)cc1F | inhibition | 12

* * *

Catalogue of log10(AUC) readings, one per entry.
- Test system: Rattus norvegicus
- Assay Info: AUC in rat at 1 mg/kg, iv
- Format: ADME, organism-based, Sprague-Dawley, Plasma
- Set-up: dose 1 mg/kg, route intravenous
- Condition Set: in vivo
Experimental Readout: log10(AUC) (log10 of the value in ng·h/mL)

Compound | Obs Value
CCONC(=O)c1cn(C)c(=O)c(F)c1Nc1ccc(Br)cc1F | 4.38
Cc1c(Nc2ccc(Br)cc2F)c(C(=O)NOCCO)cn(C)c1=O | 3.35
Cn1cc(C(N)=O)c(Nc2ccc(Br)cc2F)c(F)c1=O | 3.40
CONC(=O)c1cn(C)c(=O)c(C)c1Nc1ccc(Br)cc1F | 4.06
CCONC(=O)c1cn(C)c(=O)c(C)c1Nc1ccc(Br)cc1F | 3.95

* * *

- Tested System: Lymphokine-activated killer T-cell-originated protein kinase (Homo sapiens) (UniProt Q96KB5)
- Sequence (Q96KB5 whole entry): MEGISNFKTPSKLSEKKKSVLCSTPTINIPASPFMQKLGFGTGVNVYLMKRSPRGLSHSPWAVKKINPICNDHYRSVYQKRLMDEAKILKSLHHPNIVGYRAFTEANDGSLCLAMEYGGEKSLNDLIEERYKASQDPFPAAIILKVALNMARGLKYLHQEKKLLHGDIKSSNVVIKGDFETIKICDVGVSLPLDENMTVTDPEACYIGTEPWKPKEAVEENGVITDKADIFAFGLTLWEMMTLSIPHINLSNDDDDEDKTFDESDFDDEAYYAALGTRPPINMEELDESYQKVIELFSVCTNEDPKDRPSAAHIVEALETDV
- Assay Info: Inhibition of PBK at 10 uM

Compound | inhibition / %
Cc1c(Nc2ccc(Br)cc2F)c(C(=O)NOCCO)cn(C)c1=O | -8
CONC(=O)c1cn(C)c(=O)c(C)c1Nc1ccc(Br)cc1F | -4
CCONC(=O)c1cn(C)c(=O)c(F)c1Nc1ccc(Br)cc1F | -1
CCONC(=O)c1cn(C)c(=O)c(C)c1Nc1ccc(Br)cc1F | 3

* * *

- Assay Info: Half life in rat at 1 mg/kg, iv
- Assay type: ADME, organism-based
- Design: dose 1 mg/kg, route intravenous
- Condition Set: Sprague-Dawley, in vivo

Compound | half-life
CCONC(=O)c1cn(C)c(=O)c(F)c1Nc1ccc(Br)cc1F | 6 h
Cn1cc(C(N)=O)c(Nc2ccc(Br)cc2F)c(F)c1=O | 1.8 h
Cc1c(Nc2ccc(Br)cc2F)c(C(=O)NOCCO)cn(C)c1=O | 1.6 h
CONC(=O)c1cn(C)c(=O)c(C)c1Nc1ccc(Br)cc1F | 3.5 h
CCONC(=O)c1cn(C)c(=O)c(C)c1Nc1ccc(Br)cc1F | 2.5 h

* * *

Catalogue of bioavailability readings, one per entry.
- Assay Info: Oral bioavailability in rat
- Format: ADME, organism-based
- Condition Set: Sprague-Dawley, in vivo
Experimental Readout: bioavailability (%)

Compound | Experimental Readout | Obs Value
CCONC(=O)c1cn(C)c(=O)c(C)c1Nc1ccc(Br)cc1F | bioavailability | 80
Cn1cc(C(N)=O)c(Nc2ccc(Br)cc2F)c(F)c1=O | bioavailability | 100
CONC(=O)c1cn(C)c(=O)c(C)c1Nc1ccc(Br)cc1F | bioavailability | 73
CCONC(=O)c1cn(C)c(=O)c(F)c1Nc1ccc(Br)cc1F | bioavailability | 58
Cc1c(Nc2ccc(Br)cc2F)c(C(=O)NOCCO)cn(C)c1=O | bioavailability | 53

* * *

- Tested System: UniProtKB P17252
- Assay Info: Inhibition of PKCa at 10 uM

Compound | inhibition
CONC(=O)c1cn(C)c(=O)c(C)c1Nc1ccc(Br)cc1F | 0%
CCONC(=O)c1cn(C)c(=O)c(F)c1Nc1ccc(Br)cc1F | 6%
CCONC(=O)c1cn(C)c(=O)c(C)c1Nc1ccc(Br)cc1F | 7%
Cc1c(Nc2ccc(Br)cc2F)c(C(=O)NOCCO)cn(C)c1=O | -3%

* * *

Catalogue of inhibition readings, one per entry.
- Tested System: Casein kinase II (Homo sapiens) (UniProt P67870+P68400+P19784)
- Assay Info: Inhibition of CK2 at 10 uM
- Type: protein-complex assay

Compound | inhibition [%]
CONC(=O)c1cn(C)c(=O)c(C)c1Nc1ccc(Br)cc1F | -4
CCONC(=O)c1cn(C)c(=O)c(F)c1Nc1ccc(Br)cc1F | 4
CCONC(=O)c1cn(C)c(=O)c(C)c1Nc1ccc(Br)cc1F | 4
Cc1c(Nc2ccc(Br)cc2F)c(C(=O)NOCCO)cn(C)c1=O | -1

* * *

Catalogue of inhibition readings, one per entry.
- Tested System: Rho-associated protein kinase 2 (Homo sapiens)
- Assay Info: Inhibition of ROCK 2 at 10 uM

Compound | Tested System | Measurement Units | inhibition
Cc1c(Nc2ccc(Br)cc2F)c(C(=O)NOCCO)cn(C)c1=O | Rho-associated protein kinase 2 (Homo sapiens) | % | 13
CCONC(=O)c1cn(C)c(=O)c(C)c1Nc1ccc(Br)cc1F | Rho-associated protein kinase 2 (Homo sapiens) | % | 13
CCONC(=O)c1cn(C)c(=O)c(F)c1Nc1ccc(Br)cc1F | Rho-associated protein kinase 2 (Homo sapiens) | % | 4
CONC(=O)c1cn(C)c(=O)c(C)c1Nc1ccc(Br)cc1F | Rho-associated protein kinase 2 (Homo sapiens) | % | 10
